# System: NF-κB
# testSummary: Inhibition of the TNFα-induced activation of NF-κB, 293T/NF-κB-luc luciferase reporter cell assay
# Assay type: cell-based, human
# measurementParameters: Homo sapiens, HEK-293T; 293T/NF-κB-luc cells, TNFα 20 ng/ml, 7 hours, triplicate; read-out: IC50 for inhibition of the TNFα-induced activation of NFκB
measurementLabel: IC50 (nM)
Numbers only, in nM.

// IC50 lookup, key: COc1ccc(/C=C/c2cccc(OC)c2)cc1 [6r, (E)-3,4′-Dimethoxystilbene] 600

// IC50 lookup, key: COc1ccc(/C=C/c2ccccc2Cl)cc1 [6j, (E)-2-Chloro-4′-methoxystilbene] 1500

// IC50 lookup, key: Oc1ccc(/C=C/c2cc(O)cc(O)c2)cc1 [resveratrol, 3,4′,5-trihydroxystilbene, reference compound] 20000

// IC50 lookup, key: CN(C)c1ccc(/C=C/c2ccccc2)cc1 [4cc, (E)-4-N,N-Dimethylaminostilbene] 150

Others:
// IC50 lookup, key: COc1ccc(/C=C/c2ccccc2F)cc1 [6p, (E)-2-Fluoro-4′-methoxystilbene] 150

* * *

What pIC50 was measured for each of the following?
# Test system: NF-κB
# testSummary: Inhibition of the TNFα-induced activation of NF-κB, 293T/NF-κB-luc luciferase reporter cell assay
# Assay type: cell-based, human
# measurementParameters: Homo sapiens, HEK-293T; 293T/NF-κB-luc cells, TNFα 20 ng/ml, 7 hours, triplicate; read-out: IC50 for inhibition of the TNFα-induced activation of NFκB
Answers are plain numbers, as −log10 of the molar value.

// known answers, use as guide
// pIC50 lookup, key: COc1ccc(/C=C/c2cccc(Cl)c2)cc1 [6h, (E)-3-Chloro-4′-methoxystilbene] 6.00

// pIC50 lookup, key: COc1ccc(/C=C/c2ccc(C)cc2)cc1 [6d, (E)-4′-Methoxy-4-methylstilbene] 6.05

// pIC50 lookup, key: COc1ccc(/C=C/c2cccc(C)c2)cc1 [6i, (E)-4′-Methoxy-3-methylstilbene] 6.10

Please turn your attention to the following entry.
// pIC50 lookup, key: COc1ccc(/C=C/c2ccc(O)c(O)c2)cc1 [6x, (E)-3,4-Dihydroxy-4′-methoxystilbene] 6.22
